Species: Rattus norvegicus
Test: Inhibition of Dopamine reuptake from rat caudate using [3H]DA
Assay type: functional
Sorting guide: entries reporting Ki beneath 80 nM go in the satisfied pile, the rest go in the not satisfied pile.

# example entries with known answers
>  <COMPOUND>
CN1C2CCC1CC(=CC(=O)NC(c1ccccc1)c1ccccc1)C2

>  <CLASS_ASSIGNMENT>
not satisfied

$$$$
>  <COMPOUND>
CN1[C@@H]2CC[C@H]1C[C@@H](OC(c1ccccc1)c1ccccc1)C2 [BENZTROPINE]

>  <CLASS_ASSIGNMENT>
not satisfied

$$$$
>  <COMPOUND>
c1ccc(CCCN2CCN(CCOC(c3ccccc3)c3ccccc3)CC2)cc1

>  <CLASS_ASSIGNMENT>
satisfied

$$$$

Next, consider the following compound.
Bench note: check whether CN1C2CCC1CC(CCNC(c1ccccc1)c1ccccc1)C2 (stereo not given) shows Ki below 80 nM
not satisfied

Origin of the recorded values: ChEMBL document CHEMBL1134268
